- testSystem: T1, Hu HER3: CD33-[Human HER3, residues 20-640]-TAG (human, UniProt P21860 20-640)
- T1 construct: also called hu HER3-Tag; HER3-Tag; not shown: C-terminal TAG (e.g., FLAG TAG)
- T1 sequence (P21860 20-640): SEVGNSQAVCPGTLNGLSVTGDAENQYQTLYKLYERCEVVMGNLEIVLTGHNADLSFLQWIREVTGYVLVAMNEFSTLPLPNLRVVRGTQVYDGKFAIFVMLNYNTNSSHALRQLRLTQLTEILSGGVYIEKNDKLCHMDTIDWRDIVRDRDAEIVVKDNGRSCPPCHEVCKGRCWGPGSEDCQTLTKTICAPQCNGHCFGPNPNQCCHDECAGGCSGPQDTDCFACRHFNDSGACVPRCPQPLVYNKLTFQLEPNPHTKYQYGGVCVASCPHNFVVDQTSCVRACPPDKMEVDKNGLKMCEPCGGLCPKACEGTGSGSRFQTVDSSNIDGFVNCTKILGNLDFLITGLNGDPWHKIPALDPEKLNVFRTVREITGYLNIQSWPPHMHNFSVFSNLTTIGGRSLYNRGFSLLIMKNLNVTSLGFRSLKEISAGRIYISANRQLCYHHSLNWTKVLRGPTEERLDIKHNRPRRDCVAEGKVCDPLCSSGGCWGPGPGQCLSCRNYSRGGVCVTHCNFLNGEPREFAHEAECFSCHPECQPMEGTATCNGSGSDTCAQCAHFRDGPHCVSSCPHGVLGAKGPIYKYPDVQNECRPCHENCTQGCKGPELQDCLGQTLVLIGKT
- assayRemarks: SET, IgG vs soluble HER3-Tag
Measured pKd accompanies every entry in the list below.
Answer as the number alone; pKd is minus log10 of concentration in mol/L.

As a guide, the following entries are already answered.
binder	pKd
MOR13754 (antibody, human IgG1, kappa, V domains shown, tested as IgG) VH: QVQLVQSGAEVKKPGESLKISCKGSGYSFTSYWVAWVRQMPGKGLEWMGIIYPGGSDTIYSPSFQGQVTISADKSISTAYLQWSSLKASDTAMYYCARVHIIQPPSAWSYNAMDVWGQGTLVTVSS VL: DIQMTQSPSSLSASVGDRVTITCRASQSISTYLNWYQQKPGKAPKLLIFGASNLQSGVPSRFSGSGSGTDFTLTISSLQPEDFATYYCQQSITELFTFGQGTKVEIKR	9.54
MOR13755 (antibody, human IgG1, kappa, V domains shown, tested as IgG) VH: QVQLVQSGAEVKKPGESLKISCKGSGYSFTTYWVAWVRQMPGKGLEWMGIIYPGQSDTIYSPSFQGQVTISADKSISTAYLQWSSLKASDTAMYYCARVHIIQPPSAWSYNAMDVWGQGTLVTVSS VL: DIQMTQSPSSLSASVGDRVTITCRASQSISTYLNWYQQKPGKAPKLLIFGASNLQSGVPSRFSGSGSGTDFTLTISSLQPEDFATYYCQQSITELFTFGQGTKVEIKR	10.62
MOR13767 (antibody, human IgG1, kappa, V domains shown, tested as IgG) VH: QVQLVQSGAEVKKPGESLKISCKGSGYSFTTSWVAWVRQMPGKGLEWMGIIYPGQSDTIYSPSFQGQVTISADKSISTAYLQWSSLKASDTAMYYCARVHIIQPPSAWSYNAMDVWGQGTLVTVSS VL: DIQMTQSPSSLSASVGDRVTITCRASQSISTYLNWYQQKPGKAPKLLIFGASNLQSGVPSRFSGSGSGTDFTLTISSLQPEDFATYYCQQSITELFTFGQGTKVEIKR	10.62

## Task Fill blank: measured pKd of the binder MOR13867 (antibody, human IgG1, kappa, V domains shown, tested as IgG) VH: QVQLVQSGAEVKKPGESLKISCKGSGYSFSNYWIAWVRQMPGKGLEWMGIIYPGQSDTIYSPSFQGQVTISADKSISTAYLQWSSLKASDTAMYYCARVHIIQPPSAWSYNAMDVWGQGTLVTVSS VL: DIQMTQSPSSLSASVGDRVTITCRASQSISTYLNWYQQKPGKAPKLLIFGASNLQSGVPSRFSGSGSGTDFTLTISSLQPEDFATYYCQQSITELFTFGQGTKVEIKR is ____.
## Result 10.52

## Task Item under review: MOR12510 (antibody, human IgG1, kappa, V domains shown, tested as IgG) VH: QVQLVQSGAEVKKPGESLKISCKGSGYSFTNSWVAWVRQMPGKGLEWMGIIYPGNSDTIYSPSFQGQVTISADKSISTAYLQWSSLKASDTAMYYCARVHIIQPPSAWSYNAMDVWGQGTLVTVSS VL: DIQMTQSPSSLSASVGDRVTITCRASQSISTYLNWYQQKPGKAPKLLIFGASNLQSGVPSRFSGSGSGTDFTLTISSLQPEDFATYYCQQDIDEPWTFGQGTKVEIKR . Reported pKd?
## Result 10.26

## Task For the binder shown here, MOR13871 (antibody, human IgG1, kappa, V domains shown, tested as IgG) VH: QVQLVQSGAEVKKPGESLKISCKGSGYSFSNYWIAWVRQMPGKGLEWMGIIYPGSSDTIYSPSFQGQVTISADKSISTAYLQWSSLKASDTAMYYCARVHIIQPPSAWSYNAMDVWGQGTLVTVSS VL: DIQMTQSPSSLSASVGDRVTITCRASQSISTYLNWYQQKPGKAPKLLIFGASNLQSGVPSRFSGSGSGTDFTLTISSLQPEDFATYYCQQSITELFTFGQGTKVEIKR , give the reported pKd.
## Result 9.71
